Target: T1, human BMP-11 (GDF-11; R&D Systems) (human, UniProt O95390 299-407)
T1 sequence (looked up): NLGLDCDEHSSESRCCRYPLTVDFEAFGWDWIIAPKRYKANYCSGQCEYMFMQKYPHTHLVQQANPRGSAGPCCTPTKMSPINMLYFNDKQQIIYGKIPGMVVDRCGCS
Assay: SPR format A, 25C
MEASURE_NAME: Kd (nM)

* 2522_C09 (designed binder) MGVSDVPRDLEVVAATPTSLLISWEVPRGLARYYRITYGETGGNSPVQEFTVLGRGSTATISGLKPGVDYTITVYAVTVYRDGPLLLAPISINYRTEIDKPSQHHHHHH | 0.45
* 2524_H05 (designed binder) MGVSDVPRDLEVVAATPTSLLISWSLPYSGLANYYRITYGETGGNSPVQEFTVPGRGVTATISGLKPGVDYTITVYAVTLTHSNIIRYVPISINYRTEIDKPSQHHHHHH | 0.87
* 2525_F07 (designed binder) MGVSDVPRDLEVVAATPTSLLISWSLPYAAHMNYYRITYGETGGNSPVQEFTVPGRGVTATISGLKPGVDYTITVYAVTLTRSQVIHYMPISINYRTEIDKPSQHHHHHH | 0.97

1: 2524_E10 (designed binder) MGVSDVPRDLEVVAATPTSLLISWSLPFAGHLNYYRITYGETGGNSPVQEFTVPGRGVTATISGLKPGVDYTITVYAVTLTRSKIIHYMPISINYRTEIDKPSQHHHHHH
2: 2524_D09 (designed binder) MGVSDVPRDLEVVAATPTSLLISWYLPYPAHMNYYRITYGETGGNSPVQEFTVPGRGLTATISGLKPGVDYTITVYAVTLTKSQILHHRPISINYRTEIDKPSQHHHHHH
Task item: Hi, I'm comparing two records. Which one has the lower Kd, 1 or 2 ? Output the label that corresponds to your choice.
Reply: 2
(2: 0.81 nM, 1: 1.42 nM)
